# Test system: MOLT-4 leukemia
# assay.overview: NCI tumour cell line growth inhibition, 48 h; in the data active = GI50 below about 0.43 µM; inactive = the rest
Labels: True = active, False = inactive

1. Cn1ncc2c(Sc3ccc(Cl)cc3)ncnc21; False
2. CNc1ccc(C(=O)CC(O)CCC(C)C2OC(=O)CC(O)CC(=O)CC(O)CC(O)CC(O)CC(O)CC3(O)CC(O)C(C(=O)NCCN(C)C)C(CC(OC4OC(C)C(O)C(NC(=O)CN5CCN(CCO)CC5)C4O)/C=C/C=C/C=C/C=C\C=C/C=C/C=C/C2C)O3)cc1 (stereo not drawn); True
3. C=C1C(=O)O[C@H]2[C@H]1CC/C(COC(=O)CCCCCCC(=O)OC/C1=C/CC[C@@]3(C)O[C@H]3[C@H]3OC(=O)C(=C)[C@@H]3CC1)=C\CC[C@@]1(C)O[C@@H]21; False
4. Cc1cc(C)c(-c2cc(O)c(-c3c(C)cc(C)cc3C)cc2O)c(C)c1; False
5. COc1cc(/C=N/Nc2ncnc3[nH]ncc23)ccc1O; False
6. Nc1cc2c([nH]c[n+]2CC#CCCl)c(SCC#CCCl)n1; False
7. COc1ccc(CCn2c3c(c4c(O)cccc42)C(=O)c2ccccc2-3)cc1OC; False
8. COc1ccc2nc(NNC(=O)c3cnccn3)c3cccn3c2c1; True

----------
# Test system: COLO 205 colon
# assay.overview: NCI tumour cell line growth inhibition, 48 h
Each item that follows carries a reported TGI.
measurement.name: TGI

1) Cc1cc(NN)nc2n[nH]c(N)c12; > 100 µM
2) COc1ccc(N2C(=O)C3CC(c4ccc(C)cc4)c4c([nH]c5ccccc45)C3C2=O)cc1 (stereo unspecified); > 48.5 µM
3) S=C(/C=C1\SC(=Nc2ccccc2)C(=Nc2ccccc2)N1c1ccccc1)Nc1ccccc1; > 100 µM
4) O=C(c1ccccc1)C(C(=O)c1ccccc1)c1nc2ccccc2sc1=O; > 25 µM
5) O=C(O)C1(c2ccccc2)CCCNCC1 (stereo unspecified); > 100 µM
6) O=[N+]([O-])O; > 100 µM

----------
# System: HL-60(TB) leukemia
# assay.overview: NCI tumour cell line growth inhibition, 48 h; in the data active = GI50 below about 0.43 µM; inactive = the rest
Labels: true (1) (active), false (0) (inactive)

1. COc1ccc(C2CC(c3cc(Cl)c(C)cc3O)=NN2c2ccc(S(N)(=O)=O)cc2)cc1OC (stereo unspecified); false (0)
2. COc1cc(C2=NNC(c3ccc(N(C)C)cc3)C2)cc(OC)c1OC (stereo unspecified); false (0)
3. Cc1cc2c([nH]1)CSc1cc(S(=O)(=O)c3ccccc3)c(=O)[nH]c1-2; true (1)
4. C=C(C)C(=O)Oc1ccc(N=Nc2ccc(C)cc2)ccc1=O; false (0)
5. Cc1ccc(-c2c(C#N)[n+](=O)c3cc(Cl)c(Cl)cc3n2[O-])cc1; false (0)
6. COc1ccc(Nc2nccc(Nc3ccc4[nH]ncc4c3)n2)cc1; false (0)
7. CCCCCCCCc1ccc(OCCOCC[N+](C)(C)CC)cc1 (tested in a mixture with another compound); false (0)
8. Cn1cc(-c2nc3c(F)cc4[nH]ncc4c3c3c2CCCC3)c(C(F)(F)F)n1; false (0)
9. Cn1ncc2c(Sc3ccc(Cl)cc3)ncnc21; false (0)
10. COc1cc(-c2nc3ccccc3s2)ccc1OCCCCCOc1cc2c(cc1OC)C(=O)N1CCC[C@H]1C=N2; true (1)
11. COc1ccc(CCn2c3c(c4c(O)cccc42)C(=O)c2ccccc2-3)cc1OC; false (0)
12. CCCC(c1nnnn1C1CCCCC1)N1CCN(C(=O)c2ccco2)CC1 (stereo unspecified); false (0)
13. COc1cc(-c2n[nH]nc2-c2ccc3c(c2)OCCO3)cc(OC)c1OC; true (1)
14. COc1cc(/C=N/Nc2ncnc3[nH]ncc23)ccc1O; false (0)
15. COc1cc(C(=O)/C=C/c2ccc(OCCCCCC[P+](c3ccccc3)(c3ccccc3)c3ccccc3)cc2)cc(OC)c1OC; true (1)
16. O=C1Nc2ccccc2/C1=C/C(=N/c1nnc(-c2ccccc2)s1)c1ccccc1; false (0)
